Source listed as paper PMC9907135.

Please go through the items and note down their CellTiter-Glo fold change ± SD.
system: Expi293 cells; conditions: luminescence at Tfinal (22 hours) divided by Tinitial, measure of ATP levels, reflective of cell health
Bridge positions count the residues as written; N and C are the ends. Square brackets hold non-standard residues; d marks the D form. Peptide text beside a SMILES is read from it. R8 = C=CCCCCCC[C@@](C)(N)C(=O)O; S5 = C=CCCC[C@](C)(N)C(=O)O; Nle = CCCC[C@H](N)C(=O)O
Please reply with the value in numeric form only.

// CC[C@H](C)[C@H](NC(=O)[C@H](Cc1ccc(O)cc1)NC(=O)[C@H](CCC(N)=O)NC(=O)[C@]1(C)CCCC=CCCCCCC[C@@](C)(NC(=O)[C@H](Cc2c[nH]cn2)NC(=O)[C@@H](NC(=O)[C@@H](NC(C)=O)[C@@H](C)CC)[C@@H](C)CC)C(=O)N[C@@H](Cc2ccc(O)cc2)C(=O)N[C@@H](CCC(=O)O)C(=O)N[C@@H](C)C(=O)N[C@@H](C)C(=O)N[C@@H](Cc2ccccc2)C(=O)N[C@@H](Cc2ccccc2)C(=O)N1)C(N)=O [FP08011] (Ac-IIH[R8]YEAAFF[S5]QYI-NH2; staple 4-11) : CellTiter-Glo fold change ± SD value = 1.2

For reference, reported CellTiter-Glo fold change ± SD for CCCC[C@H](NC(=O)[C@@H](NC(C)=O)C(C)C)C(=O)N[C@@H](CCC(=O)O)C(=O)N[C@]1(C)CCCCCCC=CCCC[C@@](C)(C(=O)N[C@@H](Cc2c[nH]cn2)C(=O)N[C@@H](Cc2ccc(O)cc2)C(=O)N[C@H](C(N)=O)C(C)C)NC(=O)[C@H]([C@@H](C)CC)NC(=O)[C@H](Cc2ccccc2)NC(=O)[C@H](C)NC(=O)[C@H](C)NC(=O)[C@H](CCC(N)=O)NC(=O)[C@H](Cc2ccc(O)cc2)NC1=O [FP07868] (Ac-V[Nle]E[R8]YQAAFI[S5]HYV-NH2; staple 4-11) stands at 1.2

CellTiter-Glo fold change ± SD recorded for this molecule, CCCC[C@H](NC(=O)[C@@H](NC(C)=O)C(C)C)C(=O)N[C@@H](CCC(N)=O)C(=O)N[C@]1(C)CCCCCCC=CCCC[C@@](C)(C(=O)N[C@@H](Cc2c[nH]cn2)C(=O)N[C@@H](Cc2ccc(O)cc2)C(=O)N[C@H](C(N)=O)C(C)C)NC(=O)[C@H]([C@@H](C)CC)NC(=O)[C@H](Cc2ccccc2)NC(=O)[C@H](C)NC(=O)[C@H](C)NC(=O)[C@H](CCC(=O)O)NC(=O)[C@H](Cc2ccc(O)cc2)NC1=O [FP07863] (Ac-V[Nle]Q[R8]YEAAFI[S5]HYV-NH2; staple 4-11) , is 1.2

Value of measured CellTiter-Glo fold change ± SD for the entry CCCC[C@H](NC(=O)[C@@H](NC(C)=O)C(C)C)C(=O)N[C@@H](CCC(=O)O)C(=O)N[C@]1(C)CCCCCCC=CCCC[C@@](C)(C(=O)N[C@@H](Cc2c[nH]cn2)C(=O)N[C@@H](Cc2ccc(O)cc2)C(=O)N[C@H](C(N)=O)C(C)C)NC(=O)[C@H]([C@@H](C)CC)NC(=O)[C@H](Cc2ccccc2)NC(=O)[C@H](C)NC(=O)[C@H](C)NC(=O)[C@H](CCC(=O)O)NC(=O)[C@H](Cc2ccc(O)cc2)NC1=O [FP07856] (Ac-V[Nle]E[R8]YEAAFI[S5]HYV-NH2; staple 4-11) : 1.3

---

system: Expi293 cells; conditions: percentage of Helicons in cells after treatment and wash; Expi293 cells 1x10^6 cells/mL, 22 hours, 37°C; washed twice with DPBS; MS quantitation, single-point calibration; n=2, mean ± SD
Bridge positions count the residues as written; N and C are the ends. Square brackets hold non-standard residues; d marks the D form. Peptide text beside a SMILES is read from it. R8 = C=CCCCCCC[C@@](C)(N)C(=O)O; S5 = C=CCCC[C@](C)(N)C(=O)O; Nle = CCCC[C@H](N)C(=O)O
Label rule met when Helicon in cells ± SD (%) is at or above 10%; otherwise label rule not met.

Enquiry: Determine whether this molecule has Helicon in cells ± SD (%) no lower than 10%: CCCC[C@H](NC(=O)[C@@H](NC(C)=O)C(C)C)C(=O)N[C@@H](CCC(=O)O)C(=O)N[C@]1(C)CCCCCCC=CCCC[C@@](C)(C(=O)N[C@@H](Cc2c[nH]cn2)C(=O)N[C@@H](Cc2ccc(O)cc2)C(=O)N[C@H](C(N)=O)C(C)C)NC(=O)[C@H]([C@@H](C)CC)NC(=O)[C@H](Cc2ccccc2)NC(=O)[C@H](C)NC(=O)[C@H](C)NC(=O)[C@H](CCC(=O)O)NC(=O)[C@H](Cc2ccc(O)cc2)NC1=O [FP07855] (Ac-V[Nle]E[R8]YEAAFI[S5]HYV-NH2; staple 4-11)
Return: rule met

Enquiry: Check the entry CC[C@H](C)[C@H](NC(=O)[C@H](Cc1ccc(O)cc1)NC(=O)[C@H](CCC(N)=O)NC(=O)[C@]1(C)CCCC=CCCCCCC[C@@](C)(NC(=O)[C@H](Cc2c[nH]cn2)NC(=O)[C@@H](NC(=O)[C@@H](NC(C)=O)[C@@H](C)CC)[C@@H](C)CC)C(=O)N[C@@H](Cc2ccc(O)cc2)C(=O)N[C@@H](CCC(=O)O)C(=O)N[C@@H](C)C(=O)N[C@@H](C)C(=O)N[C@@H](Cc2ccccc2)C(=O)N[C@@H](Cc2ccccc2)C(=O)N1)C(N)=O [FP08011] (Ac-IIH[R8]YEAAFF[S5]QYI-NH2; staple 4-11) : does Helicon in cells ± SD (%) equal or exceed 10%?
Return: rule not met

Enquiry: Check if Helicon in cells ± SD (%) >= 10% (inclusive). Item: CCCC[C@H](NC(=O)[C@@H](NC(C)=O)C(C)C)C(=O)N[C@@H](CCC(N)=O)C(=O)N[C@]1(C)CCCCCCC=CCCC[C@@](C)(C(=O)N[C@@H](Cc2c[nH]cn2)C(=O)N[C@@H](Cc2ccc(O)cc2)C(=O)N[C@H](C(N)=O)C(C)C)NC(=O)[C@H]([C@@H](C)CC)NC(=O)[C@H](Cc2ccccc2)NC(=O)[C@H](C)NC(=O)[C@H](C)NC(=O)[C@H](CCC(=O)O)NC(=O)[C@H](Cc2ccc(O)cc2)NC1=O [FP07863] (Ac-V[Nle]Q[R8]YEAAFI[S5]HYV-NH2; staple 4-11)
Return: rule met

Enquiry: Assess whether reported Helicon in cells ± SD (%) for CCCC[C@H](NC(=O)[C@@H](NC(C)=O)C(C)C)C(=O)N[C@@H](CCC(=O)O)C(=O)N[C@]1(C)CCCCCCC=CCCC[C@@](C)(C(=O)N[C@@H](Cc2c[nH]cn2)C(=O)N[C@@H](Cc2ccc(O)cc2)C(=O)N[C@H](C(N)=O)C(C)C)NC(=O)[C@H]([C@@H](C)CC)NC(=O)[C@H](Cc2ccccc2)NC(=O)[C@H](C)NC(=O)[C@H](C)NC(=O)[C@H](CCC(N)=O)NC(=O)[C@H](Cc2ccc(O)cc2)NC1=O [FP07868] (Ac-V[Nle]E[R8]YQAAFI[S5]HYV-NH2; staple 4-11) sits at 10% or higher.
Return: rule met

Enquiry: Does Helicon in cells ± SD (%) meet or surpass 10% for CCCC[C@H](NC(=O)[C@@H](NC(C)=O)C(C)C)C(=O)N[C@@H](CCC(=O)O)C(=O)N[C@]1(C)CCCCCCC=CCCC[C@@](C)(C(=O)N[C@@H](Cc2c[nH]cn2)C(=O)N[C@@H](Cc2ccc(O)cc2)C(=O)N[C@H](C(N)=O)C(C)C)NC(=O)[C@H]([C@@H](C)CC)NC(=O)[C@H](Cc2ccccc2)NC(=O)[C@H](C)NC(=O)[C@H](C)NC(=O)[C@H](CCC(N)=O)NC(=O)[C@H](Cc2ccc(O)cc2)NC1=O [FP07867] (Ac-V[Nle]E[R8]YQAAFI[S5]HYV-NH2; staple 4-11) ?
Return: rule not met

Enquiry: Does the molecule CCCC[C@H](NC(=O)[C@H](Cc1ccc(O)cc1)NC(=O)[C@H](CCC(N)=O)NC(=O)[C@]1(C)CCCC=CCCCCCC[C@@](C)(NC(=O)[C@H](CCC(=O)O)NC(=O)[C@H](CC(C)C)NC(=O)[C@@H](NC(C)=O)[C@@H](C)CC)C(=O)N[C@@H](Cc2ccc(O)cc2)C(=O)N[C@@H](CCC(=O)O)C(=O)N[C@@H](C)C(=O)N[C@@H](C)C(=O)N[C@@H](Cc2ccccc2)C(=O)N[C@@H](CCC(=O)O)C(=O)N1)C(N)=O [FP08018] (Ac-ILE[R8]YEAAFE[S5]QY[Nle]-NH2; staple 4-11) have recorded Helicon in cells ± SD (%) that is 10% or more?
Return: rule not met

Enquiry: Threshold query (Helicon in cells ± SD (%) >= 10%) on CCCC[C@H](NC(=O)[C@H](Cc1ccc(O)cc1)NC(=O)[C@H](CCC(N)=O)NC(=O)[C@]1(C)CCCC=CCCCCCC[C@@](C)(NC(=O)[C@H](CCC(=O)O)NC(=O)[C@H](CC(C)C)NC(=O)[C@@H](NC(C)=O)[C@@H](C)CC)C(=O)N[C@@H](Cc2ccc(O)cc2)C(=O)N[C@@H](CCC(=O)O)C(=O)N[C@@H](C)C(=O)N[C@@H](C)C(=O)N[C@@H](Cc2ccccc2)C(=O)N[C@@H](CCC(=O)O)C(=O)N1)C(N)=O [FP08017] (Ac-ILE[R8]YEAAFE[S5]QY[Nle]-NH2; staple 4-11)
Return: rule not met

Enquiry: Could you tell me if the measured Helicon in cells ± SD (%) of CCCC[C@H](NC(=O)[C@@H](NC(C)=O)C(C)C)C(=O)N[C@@H](CCC(=O)O)C(=O)N[C@]1(C)CCCCCCC=CCCC[C@@](C)(C(=O)N[C@@H](Cc2c[nH]cn2)C(=O)N[C@@H](Cc2ccc(O)cc2)C(=O)N[C@H](C(N)=O)C(C)C)NC(=O)[C@H]([C@@H](C)CC)NC(=O)[C@H](Cc2ccccc2)NC(=O)[C@H](C)NC(=O)[C@H](C)NC(=O)[C@H](CCC(=O)O)NC(=O)[C@H](Cc2ccc(O)cc2)NC1=O [FP07856] (Ac-V[Nle]E[R8]YEAAFI[S5]HYV-NH2; staple 4-11) reaches 10% or more?
Return: rule met
